System: A 172
Assay: Cytotoxicity against human A 172 cells assessed as cell viability measured after 96 hrs by XTT assay
Assay type: functional, cell-based
Settings: A 172, 96 h
Readings of IC50 for the listed compounds
# output: bare number, implied unit µM

COC(=O)N(C)/N=N/c1ccc(COC(=O)Nc2ccc3c4c(cccc24)C(=O)N(CCN(C)C)C3=O)cc1	7.46

Quick one: IC50 of CN(C)CCN1C(=O)c2cccc3cc(N)cc(c23)C1=O [AMONAFIDE] ?
23.8

Quick one: IC50 of `COC(=O)N(C)/N=N/c1ccc(COC(=O)Nc2cc3c4c(cccc4c2)C(=O)N(CCN(C)C)C3=O)cc1` ?
2.73

---

Test system: NCI-H1299
Experiment: Cytotoxicity against human NCI-H1299 cells assessed as cell viability measured after 96 hrs by XTT assay
Type: functional, cell-based
Conditions: NCI-H1299, 96 h
Readings of IC50 for the listed molecules
# output: bare number, implied unit µM

Use the examples below as a reference point.
COC(=O)N(C)/N=N/c1ccc(COC(=O)Nc2ccc3c4c(cccc24)C(=O)N(CCN(C)C)C3=O)cc1	3.61
COC(=O)N(C)/N=N/c1ccc(COC(=O)Nc2cc3c4c(cccc4c2)C(=O)N(CCN(C)C)C3=O)cc1	1.79

Now examine the next entry.
So what IC50 did CN(C)CCN1C(=O)c2cccc3cc(N)cc(c23)C1=O [AMONAFIDE] get with NCI-H1299?
8.84
